Origin of values: patent US5032614A

TARGET UNDER TEST: serotonin receptor (3H-Ketanserin binding, cerebral cortex nucleus-microsome-containing fraction) (Rattus norvegicus)
Please use fulfilled for IC50 under 200 nM and not fulfilled for everything else, ties included.

{"SUBSTANCE SMILES": "CN(C)CCCCOc1ccccc1CCc1ccccc1", "CLASSIFICATION": "fulfilled"}
{"SUBSTANCE SMILES": "CN(C)CCCOc1ccccc1CCc1ccccc1", "CLASSIFICATION": "fulfilled"}
{"SUBSTANCE SMILES": "CN(C)CCCCCCOc1ccccc1CCc1ccccc1", "CLASSIFICATION": "fulfilled"}
{"SUBSTANCE SMILES": "CNCCCCOc1ccccc1CCc1ccccc1", "CLASSIFICATION": "fulfilled"}
{"SUBSTANCE SMILES": "CN(C)CCOc1ccccc1CCc1ccccc1", "CLASSIFICATION": "fulfilled"}
{"SUBSTANCE SMILES": "CN(C)CCCCCOc1ccccc1CCc1ccccc1", "CLASSIFICATION": "not fulfilled"}

====

TARGET UNDER TEST: serotonin-induced constriction of caudal artery (Rattus norvegicus, UniProt P14842)
Construct: Caudal artery was removed and spiral strip was prepared
Sequence (P14842 whole entry): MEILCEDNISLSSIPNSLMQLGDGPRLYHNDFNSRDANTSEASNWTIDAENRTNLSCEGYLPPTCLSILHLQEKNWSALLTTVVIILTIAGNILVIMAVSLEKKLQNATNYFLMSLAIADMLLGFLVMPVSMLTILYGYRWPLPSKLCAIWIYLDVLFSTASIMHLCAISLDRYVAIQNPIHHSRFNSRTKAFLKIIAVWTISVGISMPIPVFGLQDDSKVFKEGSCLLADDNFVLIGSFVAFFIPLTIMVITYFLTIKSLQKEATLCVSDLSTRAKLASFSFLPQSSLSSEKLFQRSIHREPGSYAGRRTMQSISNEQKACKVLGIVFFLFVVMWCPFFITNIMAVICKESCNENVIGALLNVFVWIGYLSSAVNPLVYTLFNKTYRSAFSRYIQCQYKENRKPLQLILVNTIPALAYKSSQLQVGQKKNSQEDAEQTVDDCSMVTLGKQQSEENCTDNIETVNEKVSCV
TEST DETAILS: Inhibition test against serotonin-induced constriction of caudal artery in rats
ASSAY CONTEXT: Wistar rat caudal artery spiral strip, from shift of serotonin ED50; read-out: Ki (inhibition constant against serotonin-induced constriction)
Ki for assorted compounds
MEASURE NAME: Ki (nM)

{"COMPOUND": "CN(C)CCCOc1ccccc1CCc1ccccc1", "UNIT": "nM", "OBSERVED RESULT": 4.55}
{"COMPOUND": "CN(C)CC(O)COc1ccccc1CCc1ccccc1 (stereo not shown)", "UNIT": "nM", "OBSERVED RESULT": 13.9}
{"COMPOUND": "c1ccc(CCc2ccccc2OCCCCN2CCCCC2)cc1", "UNIT": "nM", "OBSERVED RESULT": 67.6}
{"COMPOUND": "NCCCCOc1ccccc1CCc1ccccc1", "UNIT": "nM", "OBSERVED RESULT": 280}
{"COMPOUND": "CN(C)CCCCCOc1ccccc1CCc1ccccc1", "UNIT": "nM", "OBSERVED RESULT": 37.6}
{"COMPOUND": "CN(C)CCCCCCOc1ccccc1CCc1ccccc1", "UNIT": "nM", "OBSERVED RESULT": 74.9}
{"COMPOUND": "CN(C)CC(COc1ccccc1CCc1cccc(F)c1)OC(=O)CCC(=O)O (stereo not shown)", "UNIT": "nM", "OBSERVED RESULT": 41.3}
{"COMPOUND": "CN(C)CCCOc1ccccc1CCc1ccc(N(C)C)cc1", "UNIT": "nM", "OBSERVED RESULT": 23.3}
{"COMPOUND": "COc1cccc(CCc2ccccc2)c1OCCCCN(C)C", "UNIT": "nM", "OBSERVED RESULT": 85.7}
{"COMPOUND": "COc1cccc(CCc2ccccc2OCC(CN(C)C)OCCC(=O)O)c1 (stereo not shown)", "UNIT": "nM", "OBSERVED RESULT": 1.05}
